Reference source: patent US12637469B2

molecular target: Src(T341M)(h) (Homo sapiens, UniProt P12931, T341M); construct: purchased Eurofins (KinaseProfiler platform); assay: Eurofins KinaseProfiler off-target kinase inhibition; assay type: biochemical
value type: IC50

- c1cn2c(n1)c(Nc1ccc(N3CCOCC3)cc1)nc1ccc(-c3cn[nH]c3)cc12: 1010 nM

* * *

molecular target: CDK2/cyclinA(h) (Homo sapiens); construct: purchased Eurofins (KinaseProfiler platform); assay: Eurofins KinaseProfiler off-target kinase inhibition; format: biochemical
value type: IC50

• c1cn2c(n1)c(Nc1ccc(N3CCOCC3)cc1)nc1ccc(-c3cn[nH]c3)cc12 [Compound 1] = > 10000 nM

* * *

Biological target: SAPK4(h) (Homo sapiens)
Construct: purchased Eurofins (KinaseProfiler platform)
Sequence (O15264 1-365): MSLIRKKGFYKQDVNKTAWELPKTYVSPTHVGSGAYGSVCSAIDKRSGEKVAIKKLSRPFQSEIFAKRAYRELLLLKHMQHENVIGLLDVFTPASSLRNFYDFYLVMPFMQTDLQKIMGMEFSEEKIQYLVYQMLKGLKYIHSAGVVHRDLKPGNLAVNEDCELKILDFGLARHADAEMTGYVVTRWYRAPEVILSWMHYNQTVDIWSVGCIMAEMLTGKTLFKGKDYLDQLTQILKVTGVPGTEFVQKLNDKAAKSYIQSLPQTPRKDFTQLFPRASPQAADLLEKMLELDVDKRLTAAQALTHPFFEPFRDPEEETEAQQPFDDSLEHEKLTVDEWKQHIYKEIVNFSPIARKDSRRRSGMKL
Test: Eurofins KinaseProfiler off-target kinase inhibition
Format: biochemical
value type: IC50

- c1cn2c(n1)c(Nc1ccc(N3CCOCC3)cc1)nc1ccc(-c3cn[nH]c3)cc12: > 10000 nM

* * *

Molecular target: MKK6(h) (Homo sapiens, UniProt P52564)
Construct: purchased Eurofins (KinaseProfiler service)
Sequence (P52564 1-334): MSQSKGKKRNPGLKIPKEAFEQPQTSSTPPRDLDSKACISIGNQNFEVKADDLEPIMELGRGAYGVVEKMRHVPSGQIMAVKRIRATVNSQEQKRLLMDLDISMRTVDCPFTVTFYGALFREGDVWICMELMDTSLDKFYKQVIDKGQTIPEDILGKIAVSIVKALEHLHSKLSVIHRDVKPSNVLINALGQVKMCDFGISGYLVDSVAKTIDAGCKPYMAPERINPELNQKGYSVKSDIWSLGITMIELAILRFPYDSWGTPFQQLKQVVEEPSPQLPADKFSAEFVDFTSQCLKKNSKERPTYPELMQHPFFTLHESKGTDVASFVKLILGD
Test: Eurofins KinaseProfiler off-target kinase inhibition
Type: biochemical
Experimental: In order to investigate the specificity of the inhibition of the target by the compound, in this study, the activity and selectivity of test compound 1 on the off-target kinases in related pathways were tested on the Eurofins kinaseProfiler™ platform, and compound screening and analysis were conducted using IC50 value as the indicator. Compound 1 was detected for each selected kinase using the standard Eurofins Kinase Profiler™ protocol, which followed the relevant standard operating procedures. […]
value type: IC50

* c1cn2c(n1)c(Nc1ccc(N3CCOCC3)cc1)nc1ccc(-c3cn[nH]c3)cc12 | > 10000 nM

* * *

Target: MAPK1(h) (Homo sapiens, UniProt P27361)
Construct: purchased Eurofins (KinaseProfiler service)
Sequence (P27361 2-379 limits assumed): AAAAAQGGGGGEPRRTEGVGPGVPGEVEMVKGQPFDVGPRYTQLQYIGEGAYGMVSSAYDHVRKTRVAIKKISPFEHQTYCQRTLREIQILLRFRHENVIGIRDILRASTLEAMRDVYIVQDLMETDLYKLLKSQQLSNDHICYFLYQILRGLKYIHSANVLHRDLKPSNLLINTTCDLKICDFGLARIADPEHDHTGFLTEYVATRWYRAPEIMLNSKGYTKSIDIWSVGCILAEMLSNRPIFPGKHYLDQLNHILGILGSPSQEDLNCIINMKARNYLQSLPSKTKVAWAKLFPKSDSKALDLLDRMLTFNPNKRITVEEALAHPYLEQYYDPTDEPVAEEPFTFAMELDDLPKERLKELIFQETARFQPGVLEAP
Assay: Eurofins KinaseProfiler off-target kinase inhibition
Format: biochemical
Procedure: In order to investigate the specificity of the inhibition of the target by the compound, in this study, the activity and selectivity of test compound 1 on the off-target kinases in related pathways were tested on the Eurofins kinaseProfiler™ platform, and compound screening and analysis were conducted using IC50 value as the indicator. Compound 1 was detected for each selected kinase using the standard Eurofins Kinase Profiler™ protocol, which followed the relevant standard operating procedures. […]
value type: IC50

* c1cn2c(n1)c(Nc1ccc(N3CCOCC3)cc1)nc1ccc(-c3cn[nH]c3)cc12 | > 10000 nM

* * *

target: TGFBR1(h) (Homo sapiens, UniProt P36897); construct: purchased Eurofins (KinaseProfiler platform); test: Eurofins KinaseProfiler off-target kinase inhibition; assay type: biochemical
Sequence (P36897 34-503): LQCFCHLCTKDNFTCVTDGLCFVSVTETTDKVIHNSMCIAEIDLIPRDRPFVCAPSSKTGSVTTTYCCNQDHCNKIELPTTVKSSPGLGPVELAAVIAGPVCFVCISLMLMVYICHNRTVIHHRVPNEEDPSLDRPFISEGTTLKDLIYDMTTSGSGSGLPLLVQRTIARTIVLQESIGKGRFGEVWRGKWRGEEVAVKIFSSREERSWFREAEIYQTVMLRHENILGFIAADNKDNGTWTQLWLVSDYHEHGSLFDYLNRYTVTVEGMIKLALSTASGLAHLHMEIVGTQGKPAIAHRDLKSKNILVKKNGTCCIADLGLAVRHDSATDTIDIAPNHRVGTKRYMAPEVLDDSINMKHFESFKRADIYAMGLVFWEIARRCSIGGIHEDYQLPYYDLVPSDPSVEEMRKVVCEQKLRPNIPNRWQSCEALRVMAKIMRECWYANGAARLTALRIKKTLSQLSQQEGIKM
value type: IC50

• c1cn2c(n1)c(Nc1ccc(N3CCOCC3)cc1)nc1ccc(-c3cn[nH]c3)cc12 = > 10000 nM

* * *

test: Pharmacokinetic evaluation of ocular administration to mouse (cornea and plasma exposure); assay type: in vivo, C57BL/6 mice; details: C57BL/6, cornea / plasma, other: eye drops (ocular administration), eye drop, 0.1 mg/animal, 1 hour, read-out: eye-to-blood ratio
value type: Kp at 1 h

• c1cn2c(n1)c(Nc1ccc(N3CCOCC3)cc1)nc1ccc(-c3cn[nH]c3)cc12 [Compound 1] = 641

* * *

Target: Txk(h) (Homo sapiens)
Construct: purchased Eurofins (KinaseProfiler platform)
Sequence (P42681 1-527): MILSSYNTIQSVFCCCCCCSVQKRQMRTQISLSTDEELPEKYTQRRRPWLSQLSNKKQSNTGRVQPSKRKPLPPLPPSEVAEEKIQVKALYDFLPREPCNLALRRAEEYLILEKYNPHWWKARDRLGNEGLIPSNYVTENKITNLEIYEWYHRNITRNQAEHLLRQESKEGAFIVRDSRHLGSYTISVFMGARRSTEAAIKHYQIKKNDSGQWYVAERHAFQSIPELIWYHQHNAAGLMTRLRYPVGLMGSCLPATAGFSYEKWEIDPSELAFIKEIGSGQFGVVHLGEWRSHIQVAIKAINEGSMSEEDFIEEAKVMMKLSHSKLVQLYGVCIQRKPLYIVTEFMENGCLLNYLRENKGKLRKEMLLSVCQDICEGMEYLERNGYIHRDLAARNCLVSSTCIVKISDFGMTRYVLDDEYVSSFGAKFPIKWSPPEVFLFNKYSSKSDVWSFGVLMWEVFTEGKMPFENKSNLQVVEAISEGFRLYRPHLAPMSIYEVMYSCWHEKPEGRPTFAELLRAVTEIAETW
Test: Eurofins KinaseProfiler off-target kinase inhibition
Assay type: biochemical
value type: IC50 (nM)

- c1cn2c(n1)c(Nc1ccc(N3CCOCC3)cc1)nc1ccc(-c3cn[nH]c3)cc12: 227

* * *

molecular target: Aurora-B(h) (Homo sapiens, UniProt Q96GD4); construct: purchased Eurofins (KinaseProfiler platform); test: Eurofins KinaseProfiler off-target kinase inhibition; assay type: biochemical
Sequence (Q96GD4 whole entry): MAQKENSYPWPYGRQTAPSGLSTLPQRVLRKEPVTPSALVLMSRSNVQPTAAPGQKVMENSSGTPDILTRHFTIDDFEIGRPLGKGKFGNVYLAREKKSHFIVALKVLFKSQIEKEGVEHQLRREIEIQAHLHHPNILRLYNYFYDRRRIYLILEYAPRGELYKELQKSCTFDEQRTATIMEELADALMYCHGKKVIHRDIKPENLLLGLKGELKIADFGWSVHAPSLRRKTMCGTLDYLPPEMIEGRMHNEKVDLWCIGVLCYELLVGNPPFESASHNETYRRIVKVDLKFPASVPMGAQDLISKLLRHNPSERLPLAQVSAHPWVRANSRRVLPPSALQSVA
value type: IC50 (nM)

* c1cn2c(n1)c(Nc1ccc(N3CCOCC3)cc1)nc1ccc(-c3cn[nH]c3)cc12 [Compound 1] | 232

* * *

target: ACTR2(h) (Homo sapiens, UniProt P27037); construct: purchased Eurofins (KinaseProfiler platform); experiment: Eurofins KinaseProfiler off-target kinase inhibition; type: biochemical
Sequence (P27037 20-513): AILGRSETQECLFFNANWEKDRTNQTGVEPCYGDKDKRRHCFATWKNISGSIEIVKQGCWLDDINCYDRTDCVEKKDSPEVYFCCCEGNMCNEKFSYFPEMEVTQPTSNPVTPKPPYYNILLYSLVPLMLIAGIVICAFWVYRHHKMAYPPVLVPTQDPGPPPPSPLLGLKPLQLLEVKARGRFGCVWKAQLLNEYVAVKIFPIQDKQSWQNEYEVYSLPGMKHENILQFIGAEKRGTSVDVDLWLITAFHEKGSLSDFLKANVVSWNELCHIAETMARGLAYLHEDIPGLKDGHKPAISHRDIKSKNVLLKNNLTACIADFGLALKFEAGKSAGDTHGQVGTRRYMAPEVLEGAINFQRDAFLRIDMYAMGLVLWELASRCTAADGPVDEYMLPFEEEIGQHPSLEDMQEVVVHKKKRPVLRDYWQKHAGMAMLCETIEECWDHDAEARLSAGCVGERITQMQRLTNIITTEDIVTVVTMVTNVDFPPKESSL
value type: IC50

• c1cn2c(n1)c(Nc1ccc(N3CCOCC3)cc1)nc1ccc(-c3cn[nH]c3)cc12 [Compound 1] = > 10000 nM

* * *

Target: CK1ε(h) (Homo sapiens)
Construct: purchased Eurofins (KinaseProfiler platform)
Sequence (P49674 whole entry): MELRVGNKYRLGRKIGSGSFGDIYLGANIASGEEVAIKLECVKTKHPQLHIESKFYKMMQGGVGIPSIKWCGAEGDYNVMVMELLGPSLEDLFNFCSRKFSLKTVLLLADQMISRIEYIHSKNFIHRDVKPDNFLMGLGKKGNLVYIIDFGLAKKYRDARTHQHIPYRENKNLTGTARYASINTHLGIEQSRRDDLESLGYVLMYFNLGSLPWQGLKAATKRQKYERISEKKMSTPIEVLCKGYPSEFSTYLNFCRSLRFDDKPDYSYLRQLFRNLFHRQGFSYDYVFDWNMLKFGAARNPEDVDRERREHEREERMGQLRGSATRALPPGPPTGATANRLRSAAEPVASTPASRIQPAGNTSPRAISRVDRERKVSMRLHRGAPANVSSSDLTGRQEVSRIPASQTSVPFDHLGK
Test: Eurofins KinaseProfiler off-target kinase inhibition
Assay type: biochemical
Method: In order to investigate the specificity of the inhibition of the target by the compound, in this study, the activity and selectivity of test compound 1 on the off-target kinases in related pathways were tested on the Eurofins kinaseProfiler™ platform, and compound screening and analysis were conducted using IC50 value as the indicator. Compound 1 was detected for each selected kinase using the standard Eurofins Kinase Profiler™ protocol, which followed the relevant standard operating procedures. […]
value type: IC50 (nM)

* c1cn2c(n1)c(Nc1ccc(N3CCOCC3)cc1)nc1ccc(-c3cn[nH]c3)cc12 | 385

* * *

assay: Pharmacokinetic evaluation of ocular administration to mouse (cornea and plasma exposure); assay type: in vivo, C57BL/6 mice; settings: C57BL/6, plasma, other: eye drops (ocular administration), eye drop, 0.1 mg/animal, 1 hour, read-out: Drug concentration in plasma
value type: concentration at 1 h

* c1cn2c(n1)c(Nc1ccc(N3CCOCC3)cc1)nc1ccc(-c3cn[nH]c3)cc12 | 10.4 nM

* * *

target: MAP4K4(h) (Homo sapiens, UniProt O95819); construct: purchased Eurofins (KinaseProfiler service); test: Eurofins KinaseProfiler off-target kinase inhibition; type: biochemical
Sequence (O95819 whole entry): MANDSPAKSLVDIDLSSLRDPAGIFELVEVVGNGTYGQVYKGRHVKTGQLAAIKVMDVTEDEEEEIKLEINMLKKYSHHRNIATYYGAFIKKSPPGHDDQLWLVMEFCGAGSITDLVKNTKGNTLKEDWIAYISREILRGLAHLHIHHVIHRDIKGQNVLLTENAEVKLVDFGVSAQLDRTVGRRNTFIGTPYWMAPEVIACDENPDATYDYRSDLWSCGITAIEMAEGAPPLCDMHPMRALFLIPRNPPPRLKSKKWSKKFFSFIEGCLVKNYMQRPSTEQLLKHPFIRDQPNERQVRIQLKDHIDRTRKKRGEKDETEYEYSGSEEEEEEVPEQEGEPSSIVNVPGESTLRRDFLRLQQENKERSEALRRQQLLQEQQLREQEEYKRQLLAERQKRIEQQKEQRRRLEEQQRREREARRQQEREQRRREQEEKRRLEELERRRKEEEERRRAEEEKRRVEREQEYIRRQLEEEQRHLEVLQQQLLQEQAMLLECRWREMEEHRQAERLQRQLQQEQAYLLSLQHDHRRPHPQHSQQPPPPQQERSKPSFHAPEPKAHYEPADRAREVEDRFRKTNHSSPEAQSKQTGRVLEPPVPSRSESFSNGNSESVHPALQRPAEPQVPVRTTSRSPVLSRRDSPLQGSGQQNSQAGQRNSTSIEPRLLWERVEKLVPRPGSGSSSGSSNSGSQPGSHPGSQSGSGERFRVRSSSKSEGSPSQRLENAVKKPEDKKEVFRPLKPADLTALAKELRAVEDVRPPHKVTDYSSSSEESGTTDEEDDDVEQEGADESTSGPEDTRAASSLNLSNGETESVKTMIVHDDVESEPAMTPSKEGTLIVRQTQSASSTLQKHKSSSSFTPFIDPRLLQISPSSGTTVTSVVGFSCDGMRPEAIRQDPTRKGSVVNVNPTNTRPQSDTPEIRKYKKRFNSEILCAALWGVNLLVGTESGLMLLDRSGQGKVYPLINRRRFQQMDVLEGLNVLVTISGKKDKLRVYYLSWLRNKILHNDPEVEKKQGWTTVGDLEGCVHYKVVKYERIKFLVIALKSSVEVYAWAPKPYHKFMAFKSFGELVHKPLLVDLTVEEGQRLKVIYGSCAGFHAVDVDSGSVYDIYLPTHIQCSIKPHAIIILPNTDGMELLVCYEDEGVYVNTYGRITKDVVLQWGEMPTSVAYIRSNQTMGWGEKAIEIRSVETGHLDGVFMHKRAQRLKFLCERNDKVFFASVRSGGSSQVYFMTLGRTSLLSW
value type: IC50 (nM)

• c1cn2c(n1)c(Nc1ccc(N3CCOCC3)cc1)nc1ccc(-c3cn[nH]c3)cc12 = 63

* * *

target: PKBα(h) (Homo sapiens); construct: purchased Eurofins (KinaseProfiler platform); assay: Eurofins KinaseProfiler off-target kinase inhibition; type: biochemical
Sequence (P31749 whole entry): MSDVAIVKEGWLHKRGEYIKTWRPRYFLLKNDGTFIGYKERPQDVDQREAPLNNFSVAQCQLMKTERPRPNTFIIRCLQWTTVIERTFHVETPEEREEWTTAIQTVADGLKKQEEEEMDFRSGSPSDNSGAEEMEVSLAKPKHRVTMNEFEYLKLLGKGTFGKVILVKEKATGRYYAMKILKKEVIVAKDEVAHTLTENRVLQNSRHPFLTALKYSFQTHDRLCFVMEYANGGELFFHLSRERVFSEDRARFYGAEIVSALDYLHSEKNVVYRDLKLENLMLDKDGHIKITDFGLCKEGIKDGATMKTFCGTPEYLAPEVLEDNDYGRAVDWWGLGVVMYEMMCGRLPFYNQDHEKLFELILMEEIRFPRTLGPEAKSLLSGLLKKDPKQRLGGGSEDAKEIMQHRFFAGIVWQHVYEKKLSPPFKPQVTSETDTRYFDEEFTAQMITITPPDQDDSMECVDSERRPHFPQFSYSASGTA
value type: IC50

- c1cn2c(n1)c(Nc1ccc(N3CCOCC3)cc1)nc1ccc(-c3cn[nH]c3)cc12 [Compound 1]: > 10000 nM

* * *

target: JAK2(h) (Homo sapiens, UniProt O60674); construct: purchased Eurofins (KinaseProfiler service); assay: Eurofins KinaseProfiler off-target kinase inhibition; assay type: biochemical
Sequence (O60674 whole entry): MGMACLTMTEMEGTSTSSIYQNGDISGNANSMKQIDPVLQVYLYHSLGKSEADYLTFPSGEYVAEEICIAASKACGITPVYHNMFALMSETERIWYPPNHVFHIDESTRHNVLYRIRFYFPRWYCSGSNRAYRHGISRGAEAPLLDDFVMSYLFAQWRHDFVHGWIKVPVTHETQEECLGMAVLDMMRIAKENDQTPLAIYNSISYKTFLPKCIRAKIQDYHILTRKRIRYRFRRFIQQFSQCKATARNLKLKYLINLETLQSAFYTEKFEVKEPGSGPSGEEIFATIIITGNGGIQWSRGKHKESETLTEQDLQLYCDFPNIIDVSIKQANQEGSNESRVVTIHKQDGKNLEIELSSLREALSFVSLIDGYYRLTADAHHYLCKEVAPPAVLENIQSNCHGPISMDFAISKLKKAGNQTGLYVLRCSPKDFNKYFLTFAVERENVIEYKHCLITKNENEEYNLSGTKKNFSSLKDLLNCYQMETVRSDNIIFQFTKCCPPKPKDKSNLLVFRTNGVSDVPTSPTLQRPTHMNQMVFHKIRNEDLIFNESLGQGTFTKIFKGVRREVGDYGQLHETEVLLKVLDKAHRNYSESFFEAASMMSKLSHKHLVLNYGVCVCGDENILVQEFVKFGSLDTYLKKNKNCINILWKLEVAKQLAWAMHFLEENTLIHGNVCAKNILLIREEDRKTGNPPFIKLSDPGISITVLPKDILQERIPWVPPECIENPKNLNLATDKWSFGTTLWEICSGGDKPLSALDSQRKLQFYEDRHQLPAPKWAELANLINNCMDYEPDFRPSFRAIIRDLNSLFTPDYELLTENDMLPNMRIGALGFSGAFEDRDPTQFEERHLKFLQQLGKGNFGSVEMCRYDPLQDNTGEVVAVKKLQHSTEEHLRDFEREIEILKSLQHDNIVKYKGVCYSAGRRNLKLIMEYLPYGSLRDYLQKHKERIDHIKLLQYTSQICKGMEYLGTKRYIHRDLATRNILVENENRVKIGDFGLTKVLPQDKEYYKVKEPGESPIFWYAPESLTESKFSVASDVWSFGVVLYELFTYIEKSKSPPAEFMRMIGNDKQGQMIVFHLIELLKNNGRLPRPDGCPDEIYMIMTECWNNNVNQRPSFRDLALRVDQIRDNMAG
value type: IC50 (nM)

- c1cn2c(n1)c(Nc1ccc(N3CCOCC3)cc1)nc1ccc(-c3cn[nH]c3)cc12 [Compound 1]: 141

* * *

Biological target: SAPK3(h) (Homo sapiens, UniProt P53778)
Construct: purchased Eurofins (KinaseProfiler platform)
Sequence (P53778 1-367): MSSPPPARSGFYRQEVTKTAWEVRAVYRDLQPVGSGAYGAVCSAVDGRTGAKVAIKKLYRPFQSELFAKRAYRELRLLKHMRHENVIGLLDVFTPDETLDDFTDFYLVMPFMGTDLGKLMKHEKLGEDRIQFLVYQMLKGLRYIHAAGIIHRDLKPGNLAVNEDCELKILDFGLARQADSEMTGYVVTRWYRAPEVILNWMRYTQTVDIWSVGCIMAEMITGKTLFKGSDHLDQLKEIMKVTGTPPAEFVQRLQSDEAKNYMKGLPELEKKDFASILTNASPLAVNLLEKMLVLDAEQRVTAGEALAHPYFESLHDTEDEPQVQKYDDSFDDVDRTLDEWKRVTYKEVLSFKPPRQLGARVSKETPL
Assay: Eurofins KinaseProfiler off-target kinase inhibition
Format: biochemical
value type: IC50

* c1cn2c(n1)c(Nc1ccc(N3CCOCC3)cc1)nc1ccc(-c3cn[nH]c3)cc12 | > 10000 nM
